- ASSAY_COMMENT: chemical genetic growth profiling, strain panel (AID 1159580);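 also: tested at 20 µM; growth read once vehicle control cultures reached saturation at 30 °C; 1 = growth at the plate median or of vehicle wells; lower values mean less growth of the strain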
- MEASUREMENT_CONTEXT: S. cerevisiae deletion strains, growth OD, locus YOR061W, strain CKA2, hits give low values
Among all 5,500 compounds or so, about 2,000 (36%) were called active. Not shown: some 18% with an inconclusive outcome. The list shows a part of the results.
MEASUREMENT_KIND: normalized growth
// response body must contain only the number

Known normalized growth results, listed for orientation:
Prompt line: What value of normalized growth has been recorded for this entry: `NCCCCCCNS(=O)(=O)c1cccc2c(Cl)cccc12`
Response line: 0.995

Prompt line: What value of normalized growth has been recorded for this entry: CC(=O)O[C@H]1CC[C@@]2(C)C(=CC(=O)C3C4CCC(C(C)CCCC(C)C)[C@@]4(C)CCC32)C1 (stereo partly specified)
Response line: 1.01

Prompt line: What value of normalized growth has been recorded for this entry: `CC(C)=CCc1c2c(c3occ(-c4ccc(O)cc4)c(=O)c3c1O)C=CC(C)(C)O2`
Response line: 0.733

Prompt line: What value of normalized growth has been recorded for this entry: `O=C(Nc1cccc(Cl)c1)O/N=C1\CCCc2occc21`
Response line: 0.85

Prompt line: What value of normalized growth has been recorded for this entry: `CC(C)(C)c1cc(C(=O)Nc2ccc3c(c2)OCO3)n(Cc2ccc(F)cc2)n1`
Response line: 0.874

Prompt line: What value of normalized growth has been recorded for this entry: `COc1ccc2cc(CCC(C)=O)ccc2c1`
Response line: 0.947

Prompt line: What value of normalized growth has been recorded for this entry: COc1ccccc1OCC(O)CO (stereo unspecified)
Response line: 1.01

Prompt line: What value of normalized growth has been recorded for this entry: CC(CCC(=O)O)[C@H]1CCC2C3CC[C@@H]4CC(=O)CC[C@]4(C)C3C=C[C@@]21C (stereo partly specified)
Response line: 1.01

Prompt line: What value of normalized growth has been recorded for this entry: `Cc1cc(=O)[nH]c(=S)[nH]1`
Response line: 1.01

Prompt line: What value of normalized growth has been recorded for this entry: `CC(C)(C)c1cc(C(=O)NNc2cccc(Cl)c2)n(Cc2ccccc2)n1`
Response line: 0.847

Now consider a different compound.
Prompt line: What value of normalized growth has been recorded for this entry: CC(C)=CC1C(C(=O)O)C1(C)C (stereo unspecified)
Response line: 1.01

----------
- ASSAY_COMMENT: chemical genetic growth profiling, strain panel (AID 1159580);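 also: tested at 20 µM; growth read once vehicle control cultures reached saturation at 30 °C; 1 = growth at the plate median or of vehicle wells; lower values mean less growth of the strain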
- MEASUREMENT_CONTEXT: S. cerevisiae deletion strains, growth OD, locus YNL248C, strain rpa49, hits give low values
In all, about 5,500 compounds went through this assay and about 2,000 (36%) were called active. Roughly 18% stayed inconclusive and do not appear here. The list shows a part of the results.
normalized growth for assorted compounds
// response body must contain only the number

Known normalized growth results, listed for orientation:
Prompt line: What value of normalized growth has been recorded for this entry: `C[C@H]1c2cccc(O)c2C(O)=C2C(=O)[C@]3(O)C(O)=C(C(N)=O)C(=O)[C@@H](N(C)C)[C@@H]3[C@@H](O)[C@@H]21`
Response line: 0.95

Prompt line: What value of normalized growth has been recorded for this entry: `C=C1c2cccc(O)c2C(O)=C2C(=O)[C@]3(O)C(O)=C(C(N)=O)C(=O)[C@@H](N(C)C)[C@@H]3[C@@H](O)[C@H]12`
Response line: 1.06

Prompt line: What value of normalized growth has been recorded for this entry: `CN(C)CCCN1c2ccccc2Sc2ccccc21`
Response line: 0.976

Prompt line: What value of normalized growth has been recorded for this entry: CC(N=C(NC#N)Nc1ccncc1)C(C)(C)C (centres undefined)
Response line: 1.02

New cases:
Prompt line: What value of normalized growth has been recorded for this entry: `CN(C)CCCN1c2ccccc2Sc2ccc(C(F)(F)F)cc21`
Response line: 0.953

Prompt line: What value of normalized growth has been recorded for this entry: `CN(C)CCCN1c2ccccc2Sc2ccc(Cl)cc21`
Response line: 0.461

Prompt line: What value of normalized growth has been recorded for this entry: `CN(C)CCCN1c2ccccc2CCc2ccccc21`
Response line: 0.988

Prompt line: What value of normalized growth has been recorded for this entry: `CN(C)[C@@H]1C(=O)C(C(N)=O)=C(O)[C@@]2(O)C(=O)C3=C(O)c4c(O)cccc4[C@@](C)(O)[C@H]3[C@H](O)[C@@H]12`
Response line: 0.966

Prompt line: What value of normalized growth has been recorded for this entry: `CN(C)[C@@H]1C(=O)C(C(N)=O)=C(O)[C@@]2(O)C(=O)C3=C(O)c4c(O)ccc(Cl)c4[C@@H](O)[C@H]3C[C@@H]12`
Response line: 0.956
